meta.source: paper PMC9167512

Substrate: Cc1ccc(O)c(O)c1
measurementDescription: purified protein
Type: biochemical, Tetranychus urticae
conditions: 0.1 M PBS pH 7.5, 25 °C, O2 co-substrate (air), Fe enzyme, kcat corrected for iron content
propertyMeasured: kcat (s⁻¹)

protein	endpointValue
TuDOG1 (Tetranychus urticae) (protein, signal peptide removed, N-terminal 6xHis kept, pJExpress 411, E. coli BL21(DE3), codon optimized (ATUM), 25-37 kDa) DVHRRGKFLPHDRTVINCASLNRKAHQHSSVLAPFTTEGPFFLPDDLKRSDITDGQKGIPLELTIKLTNAKDCTPISNFFIHAWQTNATGVYSGIDEDTAPLSGFRPTPVNRDRSLRGYQETDANGEVKFLTILPGWYSGRAIHIHIEVYAKDITDENKITYIGQFYFEHDFPLKLRKIYPYSTNTQRIIFNEQDYYYVHDHGDETTLDLKHNGAKFSSYATVAIDPTVTVHVQ	0.0324
TuDOG15 (Tetranychus urticae) (protein) DHERPGKYLEHDSTVINCARYKREANQHSCVLAPYAVEGPYFLPDDLERSNLAEDKVGVSLDLAIRLVNSNDCTPLTNMFVHVWHADALGVYSGVPDLAELFVERMRQENKTLPPFWGPEGAYEGRRPGGPGGPGGPGGPGGPGDMEMPGRPTPVNNERFLRGYQVTNEAGEVNFKTIIPGWYTGRSLHIHVEVYSKNTTEPGEVNYIGQIFFKDDLPAELKLIEPYSLNQNILVLNPQDGIYNFAHGEQTKIQLENRETGYFGSMTFGINPNAH	0.261
TuDOG7 (Tetranychus urticae) (protein) ERSIEILNHDATVIDCARYKREANQHKCVITPFTTEGPYFLPDDYERSDITDGYTGVNLNLTLLLTNAKDCSPLSNYYVHIWNANAMGHYSGVKEFNFFDHPTFRPKPINNLRFLRGYQITNEDGLVNFNTIIPGWYFGRCIHIHVEIYDKNTTDGHAVSYIGQLYFNREMPAALKLIDPYSQNNNELTLNDQDIVFALSRGSDTILELIPEGNGYSASYVLSIDPTVKVENSVLPFEDPRNVSFIEH	0.0282
TuDOG16 (Tetranychus urticae) (protein, signal peptide removed, N-terminal 6xHis kept, pJExpress 411, E. coli BL21(DE3), codon optimized (ATUM), 25-37 kDa) HSERPGKFLEHDRSIVNCARYKREANQHTCVLAPFATEGPYFLADDLERSDITDGQTGVNLDLNLKLTNAKDCSPLSGYFVHIWNANALGHYSGVQEFNKFPKQTFRPKPIYDTRWLRGYQVTNEDGEVNFKTIVPGWYYGRCLHIHVEVYSKNTTDTNAITYIGQLYFKRELPVQLKLVEPYSSNQNELKFNEQDKVFNGMHGNDTITELVFEENNAKTSFILALDPTVTTLTNGTVVN	0.0188
TuDOG11 (Tetranychus urticae) (protein, signal peptide removed, N-terminal 6xHis kept, pJExpress 411, E. coli BL21(DE3), codon optimized (ATUM), 25-37 kDa) HLQRPGKFLPHDRSIVDCARYKREANQHTCVLAPFTTEGPYFLPDDLERSDITDGQTGVNLDLNLKLTNAKDCSPLSNYFVHVWQANALGHYSGVNELFPVGFRPKPISGERFLRGYQKTNEDGEVNFKTIIPGWYVGRCIHIHVEVYAKNNTDGNAVNYIGQLYFERDIPSSLRLVEPYSTNVNEITLNDSDGVYLLTHGNDTLIDLVPQESGFRTDYIVAIDPDVSIKYDWLDI	0.0553
